These data points were gathered from ChEMBL document CHEMBL4725465.

Experimental protocol: AUC (0 to t) in ICR mouse at 1 mg/kg, iv measured up to 24 hrs
Type: ADME, organism-based
Design: route intravenous, dose 1 mg/kg, time 24 hrs
Test context: in vivo
Where a SMILES comes first, the peptide text is derived from it. [ ]: non-standard residue; d: D form. The star is where a group is joined. Gly(N-(2R-Ph-propyl)) = C[C@@H](CNCC(=O)O)c1ccccc1; X1 = CNC(=O)NC1CCN(*)CC1
Readout label: AUC(0-t) at 24 h (ng·h/mL)

[[record]]
molecule = "CNC(=O)NC1CCN(C(=O)[C@@H](CCCCN)NC(=O)[C@@H](CC(C)C)NC(=O)[C@@H](Cc2ccccc2)NC(=O)CNC[C@H](C)c2ccccc2)CC1 (H-[Gly(N-(2R-Ph-propyl))][dF][dL][dK]-X1)"
quantitative_readout = 1660

